# System: 519858-162-T-J1-PDC complex spheroid growth, % test/control;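 note: seven day drug exposure begun three days after spheroid seeding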
# assay procedure: Anticancer human tumor 519858-162-T-J1-PDC patient-derived colon adenocarcinoma cell line growth inhibition [Asc]
# run parameters: compound alone; run of 11/07/2022
pIC50: −log10 of the molar value.
measurement type: pIC50

compound="CCN1C(C(=O)NC23CCC(C(=O)O)(CC2)CC3)C(c2cccc(Cl)c2F)C2(C(=O)Nc3cc(Cl)ccc32)C12CCCCC2 (configuration not stated)" meas_value="< 5.52"

Query block: For the compound Cc1c(S(C)(=O)=O)c(-c2cc(F)cc(N3CCN(c4ccc(NS(=O)(=O)c5ccc(NC(CCN6CCC(C(=O)OCCCP(=O)(O)O)CC6)CSc6ccccc6)c(S(=O)(=O)C(F)(F)F)c5)cc4)CC3)c2)c(-c2ccc(Cl)cc2)n1C(C)C (configuration not stated) , give its measured pIC50 value.
Result block: < 5.00
